test system: Platelet-derived growth factor receptor alpha (Homo sapiens), P16234 [T674I]; conditions: at 0.1 µM
Sequence (P16234 whole entry T674I): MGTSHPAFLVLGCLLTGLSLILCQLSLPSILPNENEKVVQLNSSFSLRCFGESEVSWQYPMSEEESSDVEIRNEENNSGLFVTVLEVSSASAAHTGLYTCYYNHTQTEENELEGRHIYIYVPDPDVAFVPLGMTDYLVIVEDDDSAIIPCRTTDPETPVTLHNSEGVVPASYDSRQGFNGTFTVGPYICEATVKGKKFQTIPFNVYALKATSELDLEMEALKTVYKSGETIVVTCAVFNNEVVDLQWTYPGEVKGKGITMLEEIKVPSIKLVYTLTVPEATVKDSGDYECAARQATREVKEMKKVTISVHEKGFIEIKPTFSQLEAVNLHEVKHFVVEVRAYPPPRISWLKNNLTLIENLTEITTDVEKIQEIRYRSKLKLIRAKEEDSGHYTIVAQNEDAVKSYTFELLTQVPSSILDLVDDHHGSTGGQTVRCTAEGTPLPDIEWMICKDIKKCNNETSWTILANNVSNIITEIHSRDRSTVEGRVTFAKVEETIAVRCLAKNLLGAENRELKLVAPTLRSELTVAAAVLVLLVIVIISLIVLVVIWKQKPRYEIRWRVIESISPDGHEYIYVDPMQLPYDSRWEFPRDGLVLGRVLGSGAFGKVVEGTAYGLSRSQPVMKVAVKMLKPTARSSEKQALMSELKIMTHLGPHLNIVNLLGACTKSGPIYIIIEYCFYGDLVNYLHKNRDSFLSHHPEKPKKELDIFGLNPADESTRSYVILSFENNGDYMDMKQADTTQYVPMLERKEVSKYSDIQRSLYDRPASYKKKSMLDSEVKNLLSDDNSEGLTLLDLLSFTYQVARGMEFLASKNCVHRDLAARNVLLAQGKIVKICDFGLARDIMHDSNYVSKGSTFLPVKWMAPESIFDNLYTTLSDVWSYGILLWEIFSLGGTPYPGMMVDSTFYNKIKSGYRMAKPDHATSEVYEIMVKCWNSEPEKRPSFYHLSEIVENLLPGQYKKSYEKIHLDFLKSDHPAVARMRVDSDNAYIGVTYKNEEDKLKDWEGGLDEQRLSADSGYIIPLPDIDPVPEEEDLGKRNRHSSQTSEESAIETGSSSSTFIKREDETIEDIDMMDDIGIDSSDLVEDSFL
Result type: inhibition (%)
Please state the figure in %; there is no need to write the unit.

c1ccc(Nc2ncc(-c3ccccc3)o2)cc1: 6.18
ON=C1CCc2cc(-c3nc(C4CCNCC4)[nH]c3-c3ccncc3)ccc21: 1
Nc1nccc(-c2c(-c3ccc(F)cc3)ncn2CCCN2CCOCC2)n1: 6.08
CN(C)CCCn1c(-c2nonc2N)nc2cnccc21: 4.13
COc1cccc(-n2ncc3c(N/N=C/c4ccc(C)cc4)ncnc32)c1: 4.6
O=C1Nc2ccc(-c3cccnc3)cc2C1=Cc1cc(Br)c(O)c(Br)c1: 5.16
CN(C)C(=O)O[C@H]1CN[C@H](C#Cc2cc3ncnc(Nc4ccc(OCc5cccc(F)c5)c(Cl)c4)c3s2)C1: 5.6
O=C1Nc2ccccc2/C1=C/Nc1ccc2[nH]c(=O)[nH]c2c1: 18.2

Tested on Platelet-derived growth factor receptor alpha (Homo sapiens), P16234 [T674I]: "C[C@@H](Oc1cc(-n2cnc3ccc(OC[C@@H](O)CO)cc32)sc1C(N)=O)c1ccccc1Cl" . Observed inhibition: 0.37

Tested on Platelet-derived growth factor receptor alpha (Homo sapiens), P16234 [T674I]: "N#Cc1cccc(Nc2nccc(-c3cnn4ncccc34)n2)c1" . Observed inhibition: 15.7

Tested on Platelet-derived growth factor receptor alpha (Homo sapiens), P16234 [T674I]: "Cc1ccc2c(c1)/C(=N/Nc1ccc(S(N)(=O)=O)cc1)C(=O)N2" . Observed inhibition: 11.5

Tested on Platelet-derived growth factor receptor alpha (Homo sapiens), P16234 [T674I]: "CN(C)C(=O)O[C@@H]1CN[C@@H](C#Cc2cc3ncnc(Nc4ccc(OCc5cccc(F)c5)c(Cl)c4)c3s2)C1" . Observed inhibition: 1

Tested on Platelet-derived growth factor receptor alpha (Homo sapiens), P16234 [T674I]: "Nc1ccc(C#Cc2cncnc2Nc2ccc(OCc3cccc(F)c3)c(Cl)c2)cc1" . Observed inhibition: 3.22

###

target: Serine/threonine-protein kinase Chk1 (Homo sapiens) (UniProt O14757); details: at 0.1 µM;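 further: reported figure is the mean percent inhibition of CHEK1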
Sequence (O14757 whole entry): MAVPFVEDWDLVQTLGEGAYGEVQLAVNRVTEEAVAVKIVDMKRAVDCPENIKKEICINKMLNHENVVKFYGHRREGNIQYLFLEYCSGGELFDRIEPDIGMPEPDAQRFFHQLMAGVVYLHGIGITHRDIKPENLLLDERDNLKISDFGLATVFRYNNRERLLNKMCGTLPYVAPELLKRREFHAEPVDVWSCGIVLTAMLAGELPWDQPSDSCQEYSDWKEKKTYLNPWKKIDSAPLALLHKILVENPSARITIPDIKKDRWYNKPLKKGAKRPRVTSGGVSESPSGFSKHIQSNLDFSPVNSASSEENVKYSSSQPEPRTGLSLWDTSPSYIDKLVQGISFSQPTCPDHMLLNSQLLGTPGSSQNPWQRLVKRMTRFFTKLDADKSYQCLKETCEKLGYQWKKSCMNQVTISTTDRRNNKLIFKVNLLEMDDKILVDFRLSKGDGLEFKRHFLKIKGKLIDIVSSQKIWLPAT
Result type: inhibition (%)
Please state the figure in %; there is no need to write the unit.

# example entries with known answers
COc1cccc(-n2ncc3c(N/N=C/c4ccc(C)cc4)ncnc32)c1: -5.6
O=S(=O)(CCOCc1ccc(-c2ccc3ncnc(Nc4ccc(OCc5cccc(F)c5)c(Cl)c4)c3c2)o1)c1ccccc1: 3.34
Cc1ccc(C(=O)NC2CC2)cc1-c1ccc2[nH]ncc2c1: -1.76

Noted for "CCn1c(-c2nonc2N)nc2c(C#CC(C)(C)O)nc(OCCNC)cc21" : its inhibition reads -0.01

Noted for "COC(=O)Nc1nc2cc(Oc3ccc(NC(=O)Nc4cccc(Br)c4)cc3)ccc2[nH]1" : its inhibition reads 2.14

Noted for "COc1cc2ncn(-c3cc(OCc4ccccc4S(C)(=O)=O)c(C#N)s3)c2cc1OC" : its inhibition reads 5.49

Noted for "CS(=O)(=O)CCNCc1nc(-c2ccc3ncnc(Nc4ccc(OCc5cccc(C(F)(F)F)c5)cc4)c3c2)cs1" : its inhibition reads 1.74

Noted for "COc1cc2ncnc(Nc3ccc4c(cnn4Cc4ccccc4)c3)c2cc1OC" : its inhibition reads 8.66

Noted for "CS(=O)(=O)Nc1cccc(-c2ccc3c(NC(=O)C4CC4)n[nH]c3c2)c1" : its inhibition reads 1.78

###

target: Proto-oncogene tyrosine-protein kinase ROS (Homo sapiens); conditions: at 0.1 µM
Description: GSK_PKIS: ROS mean inhibition at 0.1 uM [Nanosyn]
Classes based on inhibition: lower level (below 4%), middle level (4% to below 5%), upper level (5% or more)

Completed entries (count: 5):
Oc1cccc(-c2nc(-c3ccccc3)[nH]c2-c2ccncc2)c1: middle level
CN(c1ccc(NC(=O)Nc2ccc(OC(F)(F)F)cc2)cc1)c1ccnc(Nc2cccc(S(N)(=O)=O)c2)n1: upper level
Nc1nccc(-c2c(-c3ccc(F)cc3)nn3cc(C(F)(F)F)ccc23)n1: middle level
NS(=O)(=O)c1cccc(Nc2cc(-c3ccc(F)cc3)n[nH]2)c1: middle level
Cc1ccc(C(=O)NC2CC2)cc1-c1ccc2[nH]ncc2c1: lower level

Could you place "CN(C)C(=O)O[C@H]1CN[C@H](C#Cc2cc3ncnc(Nc4ccc(OCc5cccc(F)c5)c(Cl)c4)c3s2)C1" in its proper category? Many thanks. middle level

Could you place "Nc1nccc(C#Cc2cncnc2Nc2ccc(OCc3cccc(F)c3)c(Cl)c2)n1" in its proper category? Many thanks. upper level

Could you place "NC(=O)c1sc(-n2cnc3ccccc32)cc1OCc1ccccc1Br" in its proper category? Many thanks. upper level

Could you place "CS(=O)(=O)Nc1cccc(-c2ccc3c(NC(=O)C4CC4)n[nH]c3c2)c1" in its proper category? Many thanks. lower level

###

Examples of molecules with documented inhibition follow.
target: Cyclin-dependent kinase 4 (Homo sapiens) (UniProt P11802); details: at 1 µM;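 further: enzyme tested as the CDK4–cyclin D complex, with the value reported as mean percent inhibition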
Sequence (P11802 whole entry): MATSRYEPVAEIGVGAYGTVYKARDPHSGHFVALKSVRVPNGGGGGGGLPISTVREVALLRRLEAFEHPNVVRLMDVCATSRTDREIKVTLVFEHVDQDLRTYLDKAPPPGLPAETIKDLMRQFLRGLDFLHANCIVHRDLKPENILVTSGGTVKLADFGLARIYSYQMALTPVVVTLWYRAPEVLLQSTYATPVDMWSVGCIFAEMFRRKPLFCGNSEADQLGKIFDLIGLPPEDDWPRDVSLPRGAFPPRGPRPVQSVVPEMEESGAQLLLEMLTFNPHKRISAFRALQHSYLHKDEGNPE
Please state the figure in %; there is no need to write the unit.

O=S(=O)(CCOCc1ccc(-c2ccc3ncnc(Nc4ccc(OCc5cccc(F)c5)c(Cl)c4)c3c2)o1)c1ccccc1: 4.69

Noted for "Nc1nccc(-c2c(-c3ccc(F)cc3)nn3cc(C(F)(F)F)ccc23)n1" : its inhibition reads 1.03

Noted for "CN(C)C(=O)O[C@@H]1CN[C@@H](C#Cc2cc3ncnc(Nc4ccc(OCc5cccc(F)c5)c(Cl)c4)c3s2)C1" : its inhibition reads 1.46

Noted for "COc1ccc(-c2nn3ncccc3c2-c2ccnc(Nc3cccc(C(F)(F)F)c3)n2)cc1" : its inhibition reads 3.64

Noted for "NC(=O)c1sc(-n2cnc3ccccc32)cc1OCc1ccccc1Br" : its inhibition reads 8.04

Noted for "COc1cccc(-n2ncc3c(N/N=C/c4ccc(S(C)(=O)=O)cc4)ncnc32)c1" : its inhibition reads 20.4

Noted for "COc1cc2ncnc(Nc3ccc4c(cnn4Cc4ccccc4)c3)c2cc1OC" : its inhibition reads 5.06

Noted for "O=C1Nc2ccc(-c3cccnc3)cc2C1=Cc1cc(Br)c(O)c(Br)c1" : its inhibition reads 3.8

Noted for "Cc1ccc2c(c1)/C(=N/Nc1ccc(S(N)(=O)=O)cc1)C(=O)N2" : its inhibition reads 16.9

Noted for "CC(C)c1ccc2c(c1)NC(=O)/C2=N/Nc1ccc(S(N)(=O)=O)cc1" : its inhibition reads 7.65

###

Biological target: Protein kinase C iota type (Homo sapiens) (UniProt P41743)
Sequence (whole entry): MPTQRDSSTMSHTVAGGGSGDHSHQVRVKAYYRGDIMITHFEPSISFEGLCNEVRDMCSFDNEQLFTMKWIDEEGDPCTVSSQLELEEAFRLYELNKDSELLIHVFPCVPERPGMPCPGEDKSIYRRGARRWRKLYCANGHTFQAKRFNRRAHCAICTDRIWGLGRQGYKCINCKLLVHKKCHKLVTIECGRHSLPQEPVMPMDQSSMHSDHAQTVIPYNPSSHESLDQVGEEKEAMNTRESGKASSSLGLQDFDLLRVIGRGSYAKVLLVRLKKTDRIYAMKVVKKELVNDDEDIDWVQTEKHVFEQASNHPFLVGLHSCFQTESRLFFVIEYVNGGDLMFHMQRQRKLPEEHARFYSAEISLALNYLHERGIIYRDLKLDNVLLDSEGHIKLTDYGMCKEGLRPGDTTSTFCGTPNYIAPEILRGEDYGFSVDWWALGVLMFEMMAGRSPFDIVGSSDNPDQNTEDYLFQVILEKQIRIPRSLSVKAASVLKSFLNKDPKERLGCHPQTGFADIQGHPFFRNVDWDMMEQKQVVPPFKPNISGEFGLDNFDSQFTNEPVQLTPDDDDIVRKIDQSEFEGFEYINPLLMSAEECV
Conditions: at 0.1 µM
Description: GSK_PKIS: PKC-iota mean inhibition at 0.1 uM [Nanosyn]
Examples of molecules with documented inhibition follow.
Please give the number followed by its unit.

COc1cc2ncn(-c3cc(OCc4ccccc4S(C)(=O)=O)c(C#N)s3)c2cc1OC: 2.06%
CC(C)c1ccc(Nc2nccc(-c3cnn4ncccc34)n2)cc1: 0.41%
Nc1nccc(-c2c(-c3ccc(F)cc3)nn3cc(C(F)(F)F)ccc23)n1: -0.75%
NS(=O)(=O)c1ccc(Nc2cc(-c3cccc(O)c3)n[nH]2)cc1: 2.37%
CN1CCN(C(=O)c2ccc(NC(=O)Nc3ccc(N(C)c4ccnc(Nc5ccc(CS(C)(=O)=O)cc5)n4)cc3)cc2)CC1: -0.67%

Noted for "COc1cccc(-n2nc(C)c3c(N/N=C(\C)c4ccncc4)ncnc32)c1" : its inhibition reads -1.18%

Noted for "CCS(=O)(=O)c1ccc(OC)c(Nc2nccc(N(C)c3ccc4c(C)n[nH]c4c3)n2)c1" : its inhibition reads 2.77%

Noted for "O=S(=O)(CCOCc1ccc(-c2ccc3ncnc(Nc4ccc(OCc5cccc(F)c5)c(Cl)c4)c3c2)o1)c1ccccc1" : its inhibition reads 0.8%

Noted for "COc1cc(/C=N/Nc2ncnc3c2cnn3C(C)C)ccc1O" : its inhibition reads 1.94%

Noted for "CN(C)C(=O)O[C@@H]1CN[C@@H](C#Cc2cc3ncnc(Nc4ccc(OCc5cccc(F)c5)c(Cl)c4)c3s2)C1" : its inhibition reads -1.15%

Noted for "NC(=O)c1sc(-n2cnc3ccccc32)cc1OCc1ccccc1Br" : its inhibition reads 1.56%

Noted for "COc1cccc(-n2ncc3c(N/N=C/c4ccc(C)cc4)ncnc32)c1" : its inhibition reads 1.65%

Noted for "NS(=O)(=O)c1cccc(Nc2cc(-c3ccc(F)cc3)n[nH]2)c1" : its inhibition reads 1.19%

Noted for "O=C(Nc1ccc(Oc2ccc3[nH]c(NC(=O)c4ccco4)nc3c2)cc1)Nc1cc(C(F)(F)F)ccc1F" : its inhibition reads 0.86%

Noted for "COc1cccc(-n2ncc3c(N/N=C/c4ccc(S(C)(=O)=O)cc4)ncnc32)c1" : its inhibition reads 2.06%

Noted for "COc1cc2ncnc(Nc3ccc4c(cnn4Cc4ccccc4)c3)c2cc1OC" : its inhibition reads 0.72%

Noted for "NS(=O)(=O)c1cccc(-c2cc3ccncc3cc2OCc2ccccc2)c1" : its inhibition reads 2.51%

Noted for "COC(=O)Nc1nc2cc(Oc3ccc(NC(=O)Nc4cccc(Br)c4)cc3)ccc2[nH]1" : its inhibition reads 1.23%

Noted for "N#Cc1c(NC(=O)c2ccccc2F)sc2c1CCCC2" : its inhibition reads -1.48%

Noted for "CN(c1ccc(NC(=O)Nc2ccc(OC(F)(F)F)cc2)cc1)c1ccnc(Nc2cccc(S(N)(=O)=O)c2)n1" : its inhibition reads 0.52%
